targetEntity: P2X7 receptor (Homo sapiens, UniProt Q99572)
Construct: host or cells: THP-1 cells differentiated with LPS and IFN-γ
Sequence (Q99572 whole entry): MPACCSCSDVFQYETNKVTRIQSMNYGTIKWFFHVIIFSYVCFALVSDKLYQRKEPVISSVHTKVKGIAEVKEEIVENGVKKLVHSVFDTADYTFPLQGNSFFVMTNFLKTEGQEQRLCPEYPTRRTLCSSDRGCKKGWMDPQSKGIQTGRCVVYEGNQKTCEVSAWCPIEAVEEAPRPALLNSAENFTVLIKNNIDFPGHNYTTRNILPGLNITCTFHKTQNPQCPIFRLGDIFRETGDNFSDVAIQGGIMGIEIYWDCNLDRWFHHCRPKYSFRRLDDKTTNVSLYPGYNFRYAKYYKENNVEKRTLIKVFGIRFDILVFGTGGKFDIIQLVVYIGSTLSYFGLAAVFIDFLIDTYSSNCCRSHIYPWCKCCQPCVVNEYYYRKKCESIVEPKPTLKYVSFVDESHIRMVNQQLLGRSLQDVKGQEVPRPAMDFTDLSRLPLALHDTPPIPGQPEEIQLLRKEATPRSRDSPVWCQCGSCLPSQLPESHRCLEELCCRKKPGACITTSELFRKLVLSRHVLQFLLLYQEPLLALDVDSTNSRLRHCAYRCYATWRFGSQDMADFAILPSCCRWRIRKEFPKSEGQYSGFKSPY
assayComment: IL-1β release assay in differentiated THP-1 cells stimulated with BzATP (Example 9)
Type: cell-based
conditionContext: 0.3 μM compound (symbols +); differentiated THP-1 cells, BzATP 250 uM; read-out: IL-1β % Inhib. @ 0.3 or 0.1 uM
I'd appreciate it if you could supply inhibition at 0.3 µM values for the items below.

Task: Report inhibition at 0.3 µM for O=C(Nc1cccc2c(=O)n(CC3(O)CCCCC3)ccc12)c1ccc2ccccc2c1 [Compound 27]
Output: 0 to 25%

Task: Identify measured inhibition at 0.3 µM associated with CC(C)C(C(=O)Nc1cccc2c(=O)n(CCO)ccc12)c1ccc(Cl)cc1 (stereo not shown) [Compound 78]
Output: 0 to 25%

Task: Could you please provide reported inhibition at 0.3 µM for O=C(Nc1cccc2c(=O)n(CC3(O)CCCCC3)ccc12)c1cc2ccccc2o1 [Compound 37] ? Thanks!
Output: 0 to 25%

Task: Assign inhibition at 0.3 µM to the following record: O=C(Cc1cc(C(F)(F)F)ccc1C(F)(F)F)Nc1cccc2c(=O)n(CCO)ccc12 [Compound 70]
Output: 26 to 50%

Task: Give a short answer stating reported inhibition at 0.3 µM for COc1ccc(C(=O)Nc2cccc3c(=O)n(CC4(O)CCCCC4)ccc23)c(C)c1 [Compound 56] .
Output: 0 to 25%

Task: Look up and state reported inhibition at 0.3 µM for O=C(Cc1ccc(F)cc1)Nc1cccc2c(=O)n(CCO)ccc12 [Compound 73]
Output: 26 to 50%

Task: Respond only with inhibition at 0.3 µM recorded for Cc1ccc(Cl)cc1C(=O)Nc1cccc2c(=O)n(CC3(O)CCCCC3)ccc12 [Compound 52]
Output: 0 to 25%

Task: State its inhibition at 0.3 µM for this compound: COc1ccc(CC(=O)Nc2cccc3c(=O)n(CC4(O)CCCCC4)ccc23)cc1OC [Compound 31]
Output: 0 to 25%

Task: Identify inhibition at 0.3 µM associated with the compound O=C(Cc1cc(Cl)ccc1C(F)(F)F)Nc1cccc2c(=O)n(CCO)ccc12 [Compound 68]
Output: 26 to 50%

Task: Find the measured inhibition at 0.3 µM of Cc1cc(C(=O)Nc2cccc3c(=O)n(CC4(O)CCCCC4)ccc23)ccc1Cl [Compound 17] and report it.
Output: 0 to 25%

Task: Give the measured inhibition at 0.3 µM for CS(=O)(=O)c1ccc(CCC(=O)Nc2cccc3c(=O)n(CCO)ccc23)cc1 [Compound 71]
Output: 0 to 25%

Task: Find the measured inhibition at 0.3 µM of O=C(Cc1cc(C(F)(F)F)cc(C(F)(F)F)c1)Nc1cccc2c(=O)n(CCO)ccc12 [Compound 64] and report it.
Output: 51 to 75%

Task: Return value of inhibition at 0.3 µM for input COc1ccc(CC(=O)Nc2cccc3c(=O)n(CC4(O)CCCCC4)ccc23)c(OC)c1 [Compound 47] , no commentary.
Output: 0 to 25%

Task: Please indicate inhibition at 0.3 µM recorded for O=C(Cc1ccc2c(c1)OCCO2)Nc1cccc2c(=O)n(CCO)ccc12 [Compound 63]
Output: 0 to 25%

Task: Respond only with inhibition at 0.3 µM recorded for O=C(Cc1cc(C(F)(F)F)ccc1Cl)Nc1cccc2c(=O)n(CCO)ccc12 [Compound 67]
Output: 0 to 25%

Task: Indicate its recorded inhibition at 0.3 µM; the compound in question is COc1ccc(CCC(=O)Nc2cccc3c(=O)n(CC4(O)CCCCC4)ccc23)cc1 [Compound 25]
Output: 0 to 25%

Task: Entry COc1ccc(CC(=O)Nc2cccc3c(=O)n(CCO)ccc23)cc1Br [Compound 66] needs its inhibition at 0.3 µM filled in; supply it.
Output: > 76%

Task: Output inhibition at 0.3 µM of CS(=O)(=O)c1ccc(CC(=O)Nc2cccc3c(=O)n(CCO)ccc23)cc1 [Compound 72]
Output: 0 to 25%

Task: Give me measured inhibition at 0.3 µM, please, for this compound: O=C(Cc1cccc2ccccc12)Nc1cccc2c(=O)n(CC3(O)CCCCC3)ccc12 [Compound 26]
Output: 0 to 25%

Task: Provide one value: measured inhibition at 0.3 µM of O=C(Cc1ccc(C(F)(F)F)cc1)Nc1cccc2c1CCN(CCO)C2=O [Compound 60]
Output: 26 to 50%

Task: Note inhibition at 0.3 µM for the compound shown: CCOc1ccccc1CC(=O)Nc1cccc2c(=O)n(CC3(O)CCCCC3)ccc12 [Compound 50]
Output: 0 to 25%

Task: Look up and state reported inhibition at 0.3 µM for O=C(Nc1cccc2c(=O)n(CCO)ccc12)C1(c2ccc(Cl)cc2)CCCC1 [Compound 79]
Output: 0 to 25%

Task: State its inhibition at 0.3 µM: COc1ccc(CC(=O)Nc2cccc3c(=O)n(CCO)ccc23)cc1 [Compound 2]
Output: 0 to 25%

Task: Give the reported inhibition at 0.3 µM for this compound. O=C(Cc1ccc(Cl)c(Cl)c1)Nc1cccc2c(=O)n(CCO)ccc12 [Compound 8]
Output: > 76%

Task: Respond only with inhibition at 0.3 µM recorded for CCC(C(=O)Nc1cccc2c(=O)n(CCO)ccc12)c1ccccc1 (stereo not shown) [Compound 74]
Output: 0 to 25%

Task: Provide inhibition at 0.3 µM value for the following compound: COc1ccc(C(=O)Nc2cccc3c(=O)n(C(CO)CO)ccc23)c(OC)c1 [Compound 5]
Output: 0 to 25%

Task: Specify reported inhibition at 0.3 µM for the compound shown: Cc1cc(C(=O)Nc2cccc3c(=O)n(CC4(O)CCCCC4)ccc23)ccc1F [Compound 48]
Output: 0 to 25%

Task: Identify measured inhibition at 0.3 µM corresponding to COc1ccc(OC)c(CC(=O)Nc2cccc3c(=O)n(CC4(O)CCCCC4)ccc23)c1 [Compound 30]
Output: 0 to 25%

Task: Determine from records and report inhibition at 0.3 µM for O=C(Cc1ccc(Cl)cc1Cl)Nc1cccc2c(=O)n(CCO)ccc12 [Compound 69]
Output: > 76%

Task: Report measured inhibition at 0.3 µM; entry is COc1ccc(OC)c(CC(=O)Nc2cccc3c(=O)n(CCO)ccc23)c1 [Compound 77]
Output: 0 to 25%

Task: Find the measured inhibition at 0.3 µM of COc1cccc(CC(=O)Nc2cccc3c(=O)n(CCO)ccc23)c1 [Compound 75] and report it.
Output: 0 to 25%

Task: Retrieve inhibition at 0.3 µM measured for Cc1ccc(Cl)c(C(=O)Nc2cccc3c(=O)n(CC4(O)CCCCC4)ccc23)c1 [Compound 51] and print it.
Output: 0 to 25%

Task: Provide measured inhibition at 0.3 µM value, entry: COc1cc(CC(=O)Nc2cccc3c(=O)n(CC4(O)CCCCC4)ccc23)cc(OC)c1 [Compound 39]
Output: 0 to 25%

Task: Look up inhibition at 0.3 µM of COc1ccc(CC(=O)Nc2cccc3c(=O)n(CC4(O)CCCCC4)ccc23)cc1 [Compound 33] and report it.
Output: 0 to 25%

* * *

targetEntity: P2X7 receptor (Homo sapiens)
Construct: host or cells: THP-1 cells differentiated with LPS and IFN-γ
assayComment: IL-1β release assay in differentiated THP-1 cells stimulated with BzATP (Example 9)
Format: cell-based
conditionContext: 0.3 μM compound; differentiated THP-1 cells, BzATP 250 uM; "+" symbols; read-out: IL-1β % Inhib. @ 0.3 or 0.1 uM
Kindly state inhibition at 0.3 µM for each of the entries shown.

Task: Give recorded inhibition at 0.3 µM. `C[C@H](C(N)=O)n1ccc2c(NC(=O)Cc3ccc(Cl)c(F)c3)cccc2c1=O`
Output: > 76%

Task: Report inhibition at 0.3 µM for `CC(C)C[C@H](CO)n1ccc2c(NC(=O)Cc3ccc(Cl)c(C(F)(F)F)c3)cccc2c1=O`
Output: > 76%

Task: Respond only with inhibition at 0.3 µM recorded for `O=C(Cc1ccc(C(F)(F)F)c(F)c1)Nc1c(Cl)ccc2c(=O)n(CCO)ccc12`
Output: > 76%

Task: Please report the measured inhibition at 0.3 µM for `C[C@H](C(N)=O)n1ccc2c(NC(=O)Cc3ccc(F)c(Br)c3)cccc2c1=O`
Output: > 76%

Task: Annotate the molecule CC(C(=O)Nc1cccc2c(=O)n([C@H](C)C(N)=O)ccc12)c1cccc(C(F)(F)F)c1F (some centres unmarked) with its measured inhibition at 0.3 µM.
Output: > 76%

Task: Given `C[C@H](C(=O)Nc1cccc2c(=O)n([C@H](C)C(N)=O)ccc12)c1ccc(Cl)cc1` , respond with its inhibition at 0.3 µM.
Output: > 76%

Task: Specify reported inhibition at 0.3 µM for the molecule shown: `C[C@H](CO)n1ccc2c(NC(=O)[C@H](C)c3ccc(Cl)c(Cl)c3)cccc2c1=O`
Output: > 76%

Task: Return reported inhibition at 0.3 µM. Input molecule: `C[C@@H](C(N)=O)n1ccc2c(NC(=O)Cc3cccc(C(F)(F)F)c3F)cccc2c1=O`
Output: > 76%

Task: Name the recorded inhibition at 0.3 µM of the item `C[C@H](CO)n1ccc2c(NC(=O)Cc3ccc(Cl)c(C(F)(F)F)c3)cccc2c1=O` in your answer.
Output: > 76%

Task: Hello, please tell me recorded inhibition at 0.3 µM for this one: `CC(C)(CO)n1ccc2c(NC(=O)Cc3ccc(C(F)(F)F)cc3C(F)(F)F)cccc2c1=O`
Output: 0 to 25%

Task: Provide only the value of recorded inhibition at 0.3 µM for `O=C(Cc1cccc(C(F)(F)F)c1F)Nc1c(Cl)ccc2c(=O)n(CCO)ccc12`
Output: > 76%

Task: Complete the entry with inhibition at 0.3 µM for `C[C@H](CO)n1ccc2c(NC(=O)Cc3ccc(C(F)(F)F)cc3)c(Cl)ccc2c1=O`
Output: > 76%

Task: Please look at this molecule and report its inhibition at 0.3 µM: `C[C@H](C(N)=O)n1ccc2c(NC(=O)Cc3ccc(C(F)(F)F)cc3F)cccc2c1=O`
Output: > 76%

Task: Could you please provide reported inhibition at 0.3 µM for `CC(=O)NCCn1ccc2c(NC(=O)Cc3ccc(C(F)(F)F)c(F)c3)cccc2c1=O` ? Thanks!
Output: 0 to 25%

Task: Let me know recorded inhibition at 0.3 µM for `C[C@H](C(N)=O)n1ccc2c(NC(=O)Cc3ccc(F)c(Cl)c3)cccc2c1=O` , thanks.
Output: > 76%

Task: Supply inhibition at 0.3 µM value. Item: `C[C@@H](C(=O)Nc1cccc2c(=O)n([C@@H](C)CO)ccc12)c1ccc(Cl)c(Cl)c1`
Output: > 76%

Task: Determine its reported inhibition at 0.3 µM: `C[C@H](C(N)=O)n1ccc2c(NC(=O)Cc3ccc(C(F)(F)F)cc3C(F)(F)F)cccc2c1=O`
Output: > 76%

Task: Please report inhibition at 0.3 µM for the following molecule: `C[C@H](CO)n1ccc2c(NC(=O)Cc3ccc(C(F)(F)F)c(F)c3)cccc2c1=O`
Output: > 76%

Task: Give inhibition at 0.3 µM for the following molecule: `C[C@H](C(N)=O)n1ccc2c(NC(=O)Cc3ccccc3Cl)cccc2c1=O`
Output: 0 to 25%

Task: State, in one line, measured inhibition at 0.3 µM of `C[C@H](CO)n1ccc2c(NC(=O)Cc3ccc(C(F)(F)F)cc3C(F)(F)F)cccc2c1=O`
Output: > 76%

Task: State, in one line, measured inhibition at 0.3 µM of `C[C@H](C(N)=O)n1ccc2c(NC(=O)Cc3cc(F)c(F)c(F)c3)cccc2c1=O`
Output: > 76%

Task: Identify inhibition at 0.3 µM associated with the molecule `C[C@@H](CO)n1ccc2c(NC(=O)Cc3cccc(C(F)(F)F)c3F)cccc2c1=O`
Output: > 76%

Task: Quote inhibition at 0.3 µM reported for `O=C(Cc1ccc(Cl)c(Cl)c1)Nc1c(Cl)ccc2c(=O)n(CCO)ccc12` please.
Output: 0 to 25%

Task: Annotate the molecule `C[C@H](C(N)=O)n1ccc2c(NC(=O)[C@H](C)c3ccc(Cl)c(Cl)c3)cccc2c1=O` with its measured inhibition at 0.3 µM.
Output: > 76%

Task: For the molecule `C[C@H](C(N)=O)n1ccc2c(NC(=O)Cc3ccc(Cl)cc3F)cccc2c1=O` , give its reported inhibition at 0.3 µM.
Output: > 76%

Task: Answer with the recorded inhibition at 0.3 µM of CC(C(=O)Nc1cccc2c(=O)n(C[C@H]3CCCN3)ccc12)c1ccc(Cl)cc1 (some centres unmarked) only.
Output: 26 to 50%

Task: Recall and state the measured inhibition at 0.3 µM for `C[C@@H](CO)n1ccc2c(NC(=O)Cc3ccc(F)c(Cl)c3)cccc2c1=O` .
Output: 51 to 75%

Task: # return recorded inhibition at 0.3 µM for entry `C[C@H](C(N)=O)n1ccc2c(NC(=O)Cc3cccc(C#N)c3)cccc2c1=O`
Output: 0 to 25%

Task: Output measured inhibition at 0.3 µM for this item: `CC(=O)NCCn1ccc2c(NC(=O)Cc3ccc(F)c(F)c3)cccc2c1=O`
Output: > 76%

Task: Give inhibition at 0.3 µM for the following molecule: CC(C(=O)Nc1cccc2c(=O)n(CCO)ccc12)c1ccc(Cl)c(C(F)(F)F)c1 (centres unmarked)
Output: > 76%

Task: Please look at this molecule and report its inhibition at 0.3 µM: `CC(C)[C@H](CO)n1ccc2c(NC(=O)[C@@H](C)c3ccc(Cl)cc3)cccc2c1=O`
Output: > 76%

Task: Name the recorded inhibition at 0.3 µM of the item CC(C(=O)Nc1cccc2c(=O)n([C@@H](C)C(N)=O)ccc12)c1cccc(C(F)(F)F)c1F (some centres unmarked) in your answer.
Output: > 76%
